test: Toxicity in human erythrocytes assessed as hemolysis at 24 uM after 40 mins; type: cell-based, Erythrocyte; settings: read-out: Activity
Where a SMILES comes first, the peptide text is derived from it. [ ]: non-standard residue; d: D form. Orn = NCCC[C@H](N)C(=O)O
For each entry below, report its hemolysis at 40 min, 24 µM value.
Answers are plain numbers, in %.

Each compound below has a recorded value; state its hemolysis at 40 min, 24 µM.
1. CC(C)C[C@H](NC(=O)[C@H](Cc1c[nH]c2ccccc12)NC(=O)[C@H](CCCNC(=N)N)NC(=O)CNC(=O)[C@H](CC(C)C)NC(=O)[C@H](CC(C)C)NC(=O)[C@H](CCCCN)NC(=O)[C@H](CO)NC(=O)[C@H](CC(C)C)NC(=O)[C@H](Cc1c[nH]c2ccccc12)NC(=O)[C@H](CCC(N)=O)NC(=O)[C@H](CC(C)C)NC(=O)[C@@H](N)CC(C)C)C(N)=O (H-LLQWLSKLLGRWL-NH2)
2. CC[C@H](C)[C@H](NC(=O)[C@H](CCCN)NC(=O)CNC(=O)[C@H](CC(C)C)NC(=O)[C@H](Cc1ccccc1)NC(=O)[C@H](CCCCN)NC(=O)[C@H](CO)NC(=O)[C@H](Cc1ccccc1)NC(=O)[C@H](Cc1c[nH]c2ccccc12)NC(=O)[C@H](CCC(N)=O)NC(=O)[C@@H](NC(=O)[C@@H](N)Cc1ccccc1)C(C)C)C(=O)N[C@@H](CC(C)C)C(N)=O (H-FVQWFSKFLG[Orn]IL-NH2)
3. CC[C@H](C)[C@H](NC(=O)[C@H](CCCN)NC(=O)CNC(=O)[C@H](CC(C)C)NC(=O)[C@H](Cc1ccccc1)NC(=O)[C@H](CCCCN)NC(=O)[C@H](CO)NC(=O)[C@H](Cc1ccccc1)NC(=O)[C@H](Cc1c[nH]c2ccccc12)NC(=O)[C@@H]1CCCN1C(=O)[C@@H](NC(=O)[C@@H](N)Cc1ccccc1)C(C)C)C(=O)N[C@@H](CC(C)C)C(N)=O (H-FVPWFSKFLG[Orn]IL-NH2)
4. CC[C@H](C)[C@H](NC(=O)[C@H](CCCCN)NC(=O)CNC(=O)[C@H](CC(C)C)NC(=O)[C@H](Cc1ccccc1)NC(=O)[C@H](CCCCN)NC(=O)[C@H](CO)NC(=O)[C@H](Cc1ccccc1)NC(=O)[C@H](Cc1c[nH]c2ccccc12)NC(=O)[C@H](CCC(N)=O)NC(=O)[C@@H](NC(=O)[C@@H](N)Cc1ccccc1)C(C)C)C(=O)N[C@@H](CC(C)C)C(N)=O (H-FVQWFSKFLGKIL-NH2)
5. CC[C@H](C)[C@H](NC(=O)[C@H](CCCNC(=N)N)NC(=O)CNC(=O)[C@H](CC(C)C)NC(=O)[C@H](Cc1ccccc1)NC(=O)[C@H](CCCCN)NC(=O)[C@H](CO)NC(=O)[C@H](Cc1ccccc1)NC(=O)[C@H](Cc1c[nH]c2ccccc12)NC(=O)[C@@H]1CCCN1C(=O)[C@@H](NC(=O)[C@@H](N)Cc1ccccc1)C(C)C)C(=O)N[C@@H](CC(C)C)C(N)=O (H-FVPWFSKFLGRIL-NH2)

100
89
72
100
92
